Property: Total foetuses (live); scope: individual compounds
- Test system: gravid White New Zealand female rabbits
- ASSAY COMMENT: Teratogenicity in gravid White New Zealand rabbits
- Format: in vivo, rabbit
- EXPERIMENTAL CONTEXT: 10 mg/kg daily, day 5 to day 18 of gestation
Counter-ions that a name gives are not always drawn.
No unit in the answer, please; the number alone is enough.

Below are worked cases with known answers.
{"COMPOUND": "Nc1ccc(C(=O)CN2CCCC2)cc1 [A 20, reference compound]", "PROPERTY NAME": "Total foetuses (live)", "OBS VALUE": 74}
{"COMPOUND": "CC(C(=O)c1ccc(N)cc1)N1CCCCC1 (stereo not drawn) [CRL 41 241]", "PROPERTY NAME": "Total foetuses (live)", "OBS VALUE": 88}
{"COMPOUND": "CC(C)NCCCC(=O)c1cc(Cl)c(N)c(Cl)c1 [A 3, reference compound]", "PROPERTY NAME": "Total foetuses (live)", "OBS VALUE": 82}
{"COMPOUND": "CN1CCN(CCC(=O)c2ccc(N)cc2)CC1 [A 11, reference compound]", "PROPERTY NAME": "Total foetuses (live)", "OBS VALUE": 80}

Ask: Find the measured Total foetuses (live): item Nc1ccc(C(=O)CCCN2CCCC2)cc1 [A 6, reference compound] , target or system gravid White New Zealand female rabbits.
Result: 86

Ask: Next entry: CC(C(=O)c1cccc(N)c1)N1CCCCC1 (stereo not drawn) [CRL 41 263, dihydrochloride]
Result: 92

====

Let's look at some molecules and their measured pH.
- ASSAY COMMENT: pH of solutions in distilled water
- Assay type: physicochemical
- EXPERIMENTAL CONTEXT: 3.2 g/liter in distilled water
Where a name gives a salt, the structure may show the parent alone.
// keep it numeric: no unit symbol after the value

Worked examples, 3 molecules total:
{"MOLECULE": "CC(C(=O)c1ccc(N)cc1)N1CCSCC1 (stereo not drawn) [CRL 41 248]", "pH": 2.5}
{"MOLECULE": "CCCNC(C)C(=O)c1ccc(N)cc1 (stereo not drawn) [CRL 41 213]", "pH": 2.0}
{"MOLECULE": "CC(C(=O)c1ccc(N)cc1)N1CCN(C)CC1 (stereo not drawn) [CRL 41 243]", "pH": 2.5}

Ask: Dear colleague, I am looking for the recorded pH of the following molecule: CC(C(=O)c1ccc(N)cc1)N1CCCC1 (stereo not drawn) [CRL 41 222, dihydrochloride]
Result: 2.5

Ask: Also check CC(C(=O)c1ccc(N)cc1)N1CCOCC1 (stereo not drawn) [CRL 41 237, dihydrochloride]
Result: 2.5

Ask: Same for CC(C(=O)c1ccc(N)cc1)N(C)C (stereo not drawn) [CRL 41 233]
Result: 2.5

====

- Test system: gravid White New Zealand female rabbits
- ASSAY COMMENT: Teratogenicity in gravid White New Zealand rabbits
- Format: in vivo, rabbit
- EXPERIMENTAL CONTEXT: 50 mg/kg daily, day 5 to day 18 of gestation
Structures can show the parent of a compound that is named as a salt.
PROPERTY NAME: Affected foetuses, number
Answer as a number with no unit attached.

Previously resolved entries follow.
{"MOLECULE": "CC(C)NC(C)C(=O)c1ccc(N)cc1 (stereo not drawn) [CRL 41 153, dihydrochloride]", "TESTED TARGET": "gravid White New Zealand female rabbits", "Affected foetuses, number": 0}
{"MOLECULE": "CNC(C)C(=O)c1ccc(N)cc1 (stereo not drawn) [CRL 41 218, dihydrochloride]", "TESTED TARGET": "gravid White New Zealand female rabbits", "Affected foetuses, number": 1}
{"MOLECULE": "Nc1ccc(C(=O)CCN2CCOCC2)cc1 [A 9, reference compound]", "TESTED TARGET": "gravid White New Zealand female rabbits", "Affected foetuses, number": 6}
{"MOLECULE": "CC(C(=O)c1ccc(N)cc1)N1CCN(C)CC1 (stereo not drawn) [CRL 41 243]", "TESTED TARGET": "gravid White New Zealand female rabbits", "Affected foetuses, number": 0}
{"MOLECULE": "CC(C(=O)c1ccc(N)cc1)N1CCOCC1 (stereo not drawn) [CRL 41 237, dihydrochloride]", "TESTED TARGET": "gravid White New Zealand female rabbits", "Affected foetuses, number": 1}

Ask: Please give the measured Affected foetuses, number for this molecule: CC(NC(C)(C)C)C(=O)c1ccc(N)cc1 (stereo not drawn) [CRL 41 178]
Result: 1

====

- ASSAY COMMENT: Particular toxicity in grouped mice
- EXPERIMENTAL CONTEXT: mouse, isolated mice, ip
Where a name gives a salt, the structure may show the parent alone.
PROPERTY NAME: LD50 (mg/kg)
Give a bare numeral; the unit mg/kg is implied.

Ask: Fill in the blank: the reported LD50 of CC(C)NC(C)C(=O)c1cc(Cl)c(N)c(Cl)c1 (stereo not shown) [CRL 41 194, hydrochloride] is ____.
Result: 86

====

- Tested on: gravid White New Zealand female rabbits
- ASSAY COMMENT: Teratogenicity in gravid White New Zealand rabbits
- Format: in vivo, rabbit
- EXPERIMENTAL CONTEXT: 5 mg/kg daily, day 5 to day 18 of gestation
Structures can show the parent of a compound that is named as a salt.
# if value of Affected foetuses, number reaches 1, tag Fulfilled; if it stays below, tag Not fulfilled

Here are 5 molecules together with their reported answers.
{"MOLECULE": "Nc1cccc(C(=O)CN2CCOCC2)c1 [A 17, reference compound]", "LABEL VALUE": "Fulfilled"}
{"MOLECULE": "Nc1ccc(C(=O)CCNC2CC2)cc1 [A 12, reference compound]", "LABEL VALUE": "Fulfilled"}
{"MOLECULE": "Nc1ccc(C(=O)CCCN2CCCCC2)cc1 [A 5, reference compound]", "LABEL VALUE": "Fulfilled"}
{"MOLECULE": "CC(C(=O)c1ccc(N)cc1)N1CCOCC1 (centres unmarked) [CRL 41 237, dihydrochloride]", "LABEL VALUE": "Not fulfilled"}
{"MOLECULE": "Nc1ccc(C(=O)CN2CCCCC2)cc1 [A 18, reference compound]", "LABEL VALUE": "Fulfilled"}

Ask: Could you please find out whether CCNC(C)C(=O)c1ccc(N)cc1 (centres unmarked) [CRL 41 225] has Affected foetuses, number that meets 1 or exceeds it?
Result: Not fulfilled

Ask: Could you do the same for Nc1ccc(C(=O)CCCN2CCCC2)cc1 [A 6, reference compound] , please?
Result: Not fulfilled

Ask: Param item: CC(C)NC(C)C(=O)c1ccc(N)cc1 (centres unmarked) [CRL 41 153, dihydrochloride]
Result: Not fulfilled

Ask: Also Nc1ccc(C(=O)CN2CCOCC2)cc1 [A 16, 1-(4-aminophenyl)-2-morpholinylethanone, reference compound] , if possible.
Result: Fulfilled

====

Affected foetuses, % values for the compounds below.
- Test system: gravid White New Zealand female rabbits
- ASSAY COMMENT: Teratogenicity in gravid White New Zealand rabbits
- Format: in vivo, rabbit
- EXPERIMENTAL CONTEXT: 5 mg/kg daily, day 5 to day 18 of gestation; normal limit 1.5%
Where a name gives a salt, the structure may show the parent alone.
All answers are understood in %, so give the number only.

Ask: What measured Affected foetuses, % goes with CC(NC(C)(C)C)C(=O)c1ccc(N)cc1 (centres unmarked) ?
Result: 1.11

Ask: Now try Nc1cccc(C(=O)CN2CCOCC2)c1 [A 17, reference compound] .
Result: 2.59

Ask: Next record, please: Nc1ccc(C(=O)CN2CCCCC2)cc1 [A 18, reference compound]
Result: 5.0

Ask: Param item: CC(C)NC(C)C(=O)c1ccc(N)cc1 (centres unmarked) [CRL 41 153, dihydrochloride]
Result: 0

Ask: Another compound to check: Nc1ccc(C(=O)CCNC2CC2)cc1 [A 12, reference compound]
Result: 2.66

Ask: And for Nc1ccc(C(=O)CCCN2CCCC2)cc1 [A 6, reference compound] ?
Result: 0

Ask: Also Nc1ccc(C(=O)CCCN2CCCCC2)cc1 [A 5, reference compound] , if possible.
Result: 3.70

Ask: Moving on to the next compound: CC(NC1CC1)C(=O)c1ccc(N)cc1 (centres unmarked)
Result: 1.12

Ask: Request: CCNC(C)C(=O)c1ccc(N)cc1 (centres unmarked)
Result: 0

Ask: Similarly, Nc1ccc(C(=O)CN2CCOCC2)cc1 [A 16, 1-(4-aminophenyl)-2-morpholinylethanone, reference compound] ?
Result: 3.70

Ask: Another: CC(C(=O)c1ccc(N)cc1)N(C)C (centres unmarked)
Result: 1.12

Ask: Then this compound: CCNCCC(=O)c1ccc(N)cc1 [A 7, reference compound]
Result: 1.25

Ask: Request: CC(C(=O)c1ccc(N)cc1)N1CCOCC1 (centres unmarked) [CRL 41 237, dihydrochloride]
Result: 0

Ask: Same again, this time with CC(C(=O)c1ccc(N)cc1)N1CCCC1 (centres unmarked) [CRL 41 222, dihydrochloride]
Result: 1.29

Ask: Same read-out for CC(C)NC(C)C(=O)c1ccc(N)c(Cl)c1 (centres unmarked) [CRL 41 221, hydrochloride] ?
Result: 1.11

Ask: Please do the same for Nc1ccc(C(=O)CCN2CCOCC2)cc1 [A 9, reference compound] as well.
Result: 1.16

Ask: Also, CC(C)NC(C)C(=O)c1cc(Cl)c(N)c(Cl)c1 (centres unmarked) [CRL 41 194, hydrochloride] please.
Result: 1.10
